Test system: MCF7
assayDetails: Inhibition of MCF-7 human breast carcinoma cell proliferation
Type: functional

| compound | units | modifierSign | GI50 |
| --- | --- | --- | --- |
| Nc1nc(OCC2CCCCC2)c2nc[nH]c2n1 | µM | = | 20 |
| COC1OC(COc2nc(N)nc3[nH]cnc23)C2OC(C)(C)OC12 (centres undefined) | µM | > | 100 |
| C=C(COc1nc(N)nc2nc[nH]c12)c1ccccc1 | µM | = | 28 |
| Nc1nc(OCC2CC=CCC2)c2[nH]cnc2n1 (centres undefined) | µM | = | 37 |

----------
studySystem: Cyclin-dependent kinase 2/cyclin A (Homo sapiens, UniProt P24941)
assayDetails: Inhibition of human Cyclin-dependent kinase 2-cyclin A3
Assay type: protein-complex assay

| structureString | studySystem | IC50, µM |
| --- | --- | --- |
| CC(C)C1(COc2nc(N)nc3[nH]cnc23)OCCO1 | Cyclin-dependent kinase 2/cyclin A (Homo sapiens, UniProt P24941) | 65 |

----------
studySystem: Cyclin-dependent kinase 1/cyclin B1 (Homo sapiens, UniProt P06493+P14635)
Sequence (P06493 whole entry, looked up): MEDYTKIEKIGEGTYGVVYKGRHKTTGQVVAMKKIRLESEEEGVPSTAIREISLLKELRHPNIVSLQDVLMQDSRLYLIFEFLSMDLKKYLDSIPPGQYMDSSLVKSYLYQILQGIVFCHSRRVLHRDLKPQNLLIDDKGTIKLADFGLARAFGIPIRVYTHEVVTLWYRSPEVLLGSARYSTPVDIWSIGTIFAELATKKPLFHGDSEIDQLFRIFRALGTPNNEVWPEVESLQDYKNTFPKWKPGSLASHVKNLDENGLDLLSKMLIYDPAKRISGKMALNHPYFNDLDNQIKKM
Sequence (P14635 whole entry, looked up): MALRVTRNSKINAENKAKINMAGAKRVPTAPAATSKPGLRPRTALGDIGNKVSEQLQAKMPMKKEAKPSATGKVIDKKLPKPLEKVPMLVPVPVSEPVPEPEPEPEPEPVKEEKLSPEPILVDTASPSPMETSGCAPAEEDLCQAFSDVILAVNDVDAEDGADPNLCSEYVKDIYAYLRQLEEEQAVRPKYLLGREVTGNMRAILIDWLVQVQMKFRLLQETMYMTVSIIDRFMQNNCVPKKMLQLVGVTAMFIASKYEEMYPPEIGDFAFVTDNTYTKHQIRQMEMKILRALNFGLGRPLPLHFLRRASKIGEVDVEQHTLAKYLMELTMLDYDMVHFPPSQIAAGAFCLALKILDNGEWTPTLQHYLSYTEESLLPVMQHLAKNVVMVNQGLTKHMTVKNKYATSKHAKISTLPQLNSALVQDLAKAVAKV
assayDetails: Inhibition of starfish oocyte (Marthasteria glacialis) Cyclin-dependent kinase 1-cyclin B1 at a concentration of 10 uM
Type: protein-complex assay
particulars: Asteroidea

| structureString | inhibition |
| --- | --- |
| Nc1nc(OCC23CC4CC(CC(C4)C2)C3)c2nc[nH]c2n1 | 55% |
| Nc1nc(OCc2cccc(Cl)c2)c2nc[nH]c2n1 | 28% |
| Nc1nc(OCC=C2CCCCC2)c2nc[nH]c2n1 | 21% |
| C=C(C)[C@H]1CC=C(COc2nc(N)nc3[nH]cnc23)CC1 | 17% |
| Nc1nc(OCc2ccc3ccccc3c2)c2[nH]cnc2n1 | 12% |
| Nc1nc(OCc2cccc3ccccc23)c2nc[nH]c2n1 | 10% |

----------
studySystem: Cyclin-dependent kinase 2/cyclin A (Homo sapiens) (UniProt P24941+P20248+P78396)
assayDetails: Inhibition of human Cyclin-dependent kinase 2-cyclin A3 at a concentration of 100 uM
Format: protein-complex assay
reportedProperty: inhibition (%)

| compound | studySystem | reportedProperty | value |
| --- | --- | --- | --- |
| COC1OC(COc2nc(N)nc3[nH]cnc23)C2OC(C)(C)OC12 (stereo not drawn) | Cyclin-dependent kinase 2/cyclin A (Homo sapiens) (UniProt P24941+P20248+P78396) | inhibition | 16 |
| CC1(C)OCC(COc2nc(N)nc3[nH]cnc23)O1 (stereo not drawn) | Cyclin-dependent kinase 2/cyclin A (Homo sapiens) (UniProt P24941+P20248+P78396) | inhibition | 36 |
| Nc1nc(OCC2COC3(CCCCC3)O2)c2[nH]cnc2n1 (stereo not drawn) | Cyclin-dependent kinase 2/cyclin A (Homo sapiens) (UniProt P24941+P20248+P78396) | inhibition | 29 |
| Nc1nc(OCc2ccccn2)c2nc[nH]c2n1 | Cyclin-dependent kinase 2/cyclin A (Homo sapiens) (UniProt P24941+P20248+P78396) | inhibition | 43 |
| Nc1nc(OCC2CCCNC2)c2nc[nH]c2n1 (stereo not drawn) | Cyclin-dependent kinase 2/cyclin A (Homo sapiens) (UniProt P24941+P20248+P78396) | inhibition | 64 |
| CC1(C)OC[C@H](COc2nc(N)nc3[nH]cnc23)O1 | Cyclin-dependent kinase 2/cyclin A (Homo sapiens) (UniProt P24941+P20248+P78396) | inhibition | 27 |
| Nc1nc(OCC2CCNCC2)c2nc[nH]c2n1 | Cyclin-dependent kinase 2/cyclin A (Homo sapiens) (UniProt P24941+P20248+P78396) | inhibition | 43 |
| CC1(C)OC[C@@H](COc2nc(N)nc3[nH]cnc23)O1 | Cyclin-dependent kinase 2/cyclin A (Homo sapiens) (UniProt P24941+P20248+P78396) | inhibition | 39 |
| Nc1nc(OC[C@H]2CCC(=O)N2)c2nc[nH]c2n1 | Cyclin-dependent kinase 2/cyclin A (Homo sapiens) (UniProt P24941+P20248+P78396) | inhibition | 35 |
| Nc1nc(OCC2COc3ccccc3O2)c2nc[nH]c2n1 (stereo not drawn) | Cyclin-dependent kinase 2/cyclin A (Homo sapiens) (UniProt P24941+P20248+P78396) | inhibition | 52 |
| CC1(C)OC2OC(COc3nc(N)nc4[nH]cnc34)C3OC(C)(C)OC3C2O1 (stereo not drawn) | Cyclin-dependent kinase 2/cyclin A (Homo sapiens) (UniProt P24941+P20248+P78396) | inhibition | 4 |
| Nc1nc(OCc2cccnc2)c2nc[nH]c2n1 | Cyclin-dependent kinase 2/cyclin A (Homo sapiens) (UniProt P24941+P20248+P78396) | inhibition | 43 |
| Nc1nc(OC[C@@H]2CCC(=O)N2)c2nc[nH]c2n1 | Cyclin-dependent kinase 2/cyclin A (Homo sapiens) (UniProt P24941+P20248+P78396) | inhibition | 15 |

----------
studySystem: Cyclin-dependent kinase 2/cyclin A (Homo sapiens) (UniProt P24941+P20248+P78396)
assayDetails: Inhibition of human Cyclin-dependent kinase 2-cyclin A at a concentration of 10 uM
Type: protein-complex assay
reportedProperty: inhibition (%)

| structureString | studySystem | reportedProperty | value |
| --- | --- | --- | --- |
| Nc1nc(OCC23CC4CC(CC(C4)C2)C3)c2nc[nH]c2n1 | Cyclin-dependent kinase 2/cyclin A (Homo sapiens) (UniProt P24941+P20248+P78396) | inhibition | 29 |
| C=C(C)[C@H]1CC=C(COc2nc(N)nc3[nH]cnc23)CC1 | Cyclin-dependent kinase 2/cyclin A (Homo sapiens) (UniProt P24941+P20248+P78396) | inhibition | 18 |
| Nc1nc(OCc2ccc3ccccc3c2)c2[nH]cnc2n1 | Cyclin-dependent kinase 2/cyclin A (Homo sapiens) (UniProt P24941+P20248+P78396) | inhibition | 9 |
| Nc1nc(OCC=C2CCCCC2)c2nc[nH]c2n1 | Cyclin-dependent kinase 2/cyclin A (Homo sapiens) (UniProt P24941+P20248+P78396) | inhibition | 12 |
| Nc1nc(OCc2cccc3ccccc23)c2nc[nH]c2n1 | Cyclin-dependent kinase 2/cyclin A (Homo sapiens) (UniProt P24941+P20248+P78396) | inhibition | 3 |

----------
studySystem: Cyclin-dependent kinase 2/cyclin A (Homo sapiens)
assayDetails: Inhibition of human Cyclin-dependent kinase 2-cyclin A
Assay type: protein-complex assay
pIC50: −log10 of the molar value.
# pIC50 listing for each entry below

| compound | modifierSign | pIC50 |
| --- | --- | --- |
| Nc1nc(OCCC2CCCCC2)c2nc[nH]c2n1 | = | 4.36 |
| Nc1nc(OCC2CCCC2)c2nc[nH]c2n1 | = | 4.68 |
| Nc1nc(OCc2ccccc2)c2[nH]cnc2n1 | = | 4.46 |
| Nc1nc(OCC2=CCCCC2)c2[nH]cnc2n1 | = | 4.66 |
| CC(C)Oc1[nH]c(N)nc2ncnc1-2 | = | 4.12 |
| CCC(C)COc1nc(N)nc2nc[nH]c12 (stereo unspecified) | = | 4.82 |
| CCCCOc1nc(N)nc2[nH]cnc12 | = | 4.32 |
| C=CCCCCOc1nc(N)nc2[nH]cnc12 | = | 4.33 |
| C=C(CC)COc1nc(N)nc2[nH]cnc12 | = | 4.68 |
| CC(C)COc1nc(N)nc2[nH]cnc12 | = | 4.38 |
| Nc1nc(OCCc2ccccc2)c2nc[nH]c2n1 | = | 4.19 |
| CCOC.CCOC(C)COc1[nH]c(N)nc2ncnc1-2 (stereo unspecified) | = | 4.48 |
| C#CCOc1nc(N)nc2nc[nH]c12 | = | 4.05 |
| C=CCOc1nc(N)nc2nc[nH]c12 | = | 4.11 |
| CCCCCOc1nc(N)nc2[nH]cnc12 | = | 4.31 |
| C=C(C)COc1nc(N)nc2nc[nH]c12 | = | 4.46 |
| CC(C)CCOc1nc(N)nc2nc[nH]c12 | = | 4.59 |
| CCCOc1nc(N)nc2nc[nH]c12 | = | 4.17 |
| C=C(COc1nc(N)nc2[nH]cnc12)C(C)C | = | 4.80 |
| Nc1nc(OCC2=CCCC2)c2[nH]cnc2n1 | = | 4.51 |
| CCCCCCCOc1nc(N)nc2[nH]cnc12 | < | 4.00 |
| Nc1nc(OCC2CC=CCC2)c2[nH]cnc2n1 (stereo unspecified) | = | 4.89 |
| CC/C=C/CCOc1nc(N)nc2[nH]cnc12 | = | 4.16 |
| C=C(COc1nc(N)nc2nc[nH]c12)c1ccccc1 | = | 4.47 |
| CCC(COc1nc(N)nc2[nH]cnc12)(OC)OC | = | 4.70 |
| CCC(C)Oc1nc(N)nc2[nH]cnc12 (stereo unspecified) | = | 4.60 |
